Data credit: ChEMBL document CHEMBL4190330

# Tested On: Adenosine receptor A2a (Rattus norvegicus)
# Sequence (P30543 whole entry): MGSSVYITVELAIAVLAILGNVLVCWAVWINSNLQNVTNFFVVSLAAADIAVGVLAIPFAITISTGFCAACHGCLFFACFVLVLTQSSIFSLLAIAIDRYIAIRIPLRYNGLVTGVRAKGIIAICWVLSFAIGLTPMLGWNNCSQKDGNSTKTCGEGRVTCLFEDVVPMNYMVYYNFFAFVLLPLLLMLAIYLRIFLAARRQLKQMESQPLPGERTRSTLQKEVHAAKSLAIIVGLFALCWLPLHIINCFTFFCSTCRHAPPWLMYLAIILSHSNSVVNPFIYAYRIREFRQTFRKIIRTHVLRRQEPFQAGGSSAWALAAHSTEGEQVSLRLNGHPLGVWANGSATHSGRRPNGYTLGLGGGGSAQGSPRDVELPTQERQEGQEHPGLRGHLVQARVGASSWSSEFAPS
# Assay Info: Antagonist activity at rat A2A receptor assessed as reduction in CGS-21680-induced cAMP level pretreated for 15 mins followed by CGS-21680 addition measured after 30 mins by HTRF assay
Result Type: Ki (nM)

// below: answered compounds
- COCC(C)Oc1ccc(N2CCN(CCn3c(=O)n(C)c4c3nc(N)n3nc(-c5ccco5)nc43)CC2)cc1 (stereo not drawn): 0.42
- COc1ccc(N2CCN(CCn3c(=O)n(C)c4c3nc(N)n3nc(-c5ccco5)nc43)CC2)c(F)c1: 0.06
- Cc1ccc(N2CCN(CCn3c(=O)n(C)c4c3nc(N)n3nc(-c5ccco5)nc43)CC2)nc1: 0.65
- COc1ccc(N2CCN(CCn3c(=O)n(C)c4c3nc(N)n3nc(-c5ccco5)nc43)CC2)cc1: 0.58
- Cc1ccc(N2CCN(CCn3c(=O)n(C)c4c3nc(N)n3nc(-c5ccco5)nc43)CC2)cc1: 0.74

1. COCCOc1ccc(N2CCN(CCn3c(=O)n(C)c4c3nc(N)n3nc(-c5nccs5)nc43)CC2)cc1
2. Cc1nc2cc(N3CCN(CCn4c(=O)n(C)c5c4nc(N)n4nc(-c6ccco6)nc54)CC3)c(F)cc2o1
Consider 1 and 2 . Which of these has its Ki at a higher number? Could you answer with the label of the item you picked?
1
(1: 11.1 nM, 2: 0.05 nM)

----------
# Tested On: Nuclear receptor subfamily 1 group I member 2 (Homo sapiens)
# Sequence (O75469 whole entry): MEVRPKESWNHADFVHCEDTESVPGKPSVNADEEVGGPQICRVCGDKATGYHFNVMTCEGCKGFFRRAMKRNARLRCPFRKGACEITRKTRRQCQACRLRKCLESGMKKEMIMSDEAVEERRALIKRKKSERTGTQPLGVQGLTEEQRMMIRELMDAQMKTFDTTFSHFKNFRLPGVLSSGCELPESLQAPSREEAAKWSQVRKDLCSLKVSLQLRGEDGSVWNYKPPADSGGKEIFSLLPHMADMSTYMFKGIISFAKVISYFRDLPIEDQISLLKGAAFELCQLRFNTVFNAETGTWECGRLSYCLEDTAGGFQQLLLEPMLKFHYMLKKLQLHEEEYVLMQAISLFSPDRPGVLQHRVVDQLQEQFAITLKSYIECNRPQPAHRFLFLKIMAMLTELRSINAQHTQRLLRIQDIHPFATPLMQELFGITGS
# Assay Info: Transactivation of recombinant human PXR expressed in HepG2 cells after 42 hrs by dual luciferase reporter gene assay
pEC50: −log10 of the molar value.
Result Type: pEC50

May I ask what pEC50 has been recorded for `COCCOc1ccc(N2CCN(CCn3c(=O)n(C)c4c3nc(N)n3nc(-c5nccs5)nc43)CC2)cc1F` ?
< 4.22

----------
# Assay Info: Protein binding in human plasma
# Format: ADME, cell-free
# Condition Info: read-out: PPB (converted)
Result Type: fraction unbound
Quick one: just the number, no unit, thanks!

May I ask what fraction unbound has been recorded for `COCCOc1ccc(N2CCN(CCn3c(=O)n(C)c4c3nc(N)n3nc(-c5nccs5)nc43)CC2)cc1F` ?
0.15

----------
# Tested On: Adenosine receptor A2a (Homo sapiens)
# Sequence (P29274 whole entry): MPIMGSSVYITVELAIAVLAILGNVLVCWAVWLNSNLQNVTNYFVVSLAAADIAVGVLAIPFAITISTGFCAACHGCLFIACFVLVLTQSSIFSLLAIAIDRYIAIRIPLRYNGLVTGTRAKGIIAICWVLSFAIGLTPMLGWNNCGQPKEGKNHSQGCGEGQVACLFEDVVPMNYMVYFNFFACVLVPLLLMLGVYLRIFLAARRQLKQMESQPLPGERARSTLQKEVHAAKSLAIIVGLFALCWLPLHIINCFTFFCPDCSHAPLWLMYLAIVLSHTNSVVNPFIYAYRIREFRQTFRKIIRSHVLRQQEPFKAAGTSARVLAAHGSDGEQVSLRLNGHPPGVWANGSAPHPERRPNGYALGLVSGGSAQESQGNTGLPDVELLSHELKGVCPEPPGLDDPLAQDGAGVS
# Assay Info: Displacement of [3H]ZM241385 from human A2A receptor expressed in HEK293 cell membranes after 90 mins radioligand binding assay
pKi: −log10 of the molar value.
Result Type: pKi

Illustrative cases are given below, each with its answer.
* COCCOc1ccc(N2CCN(CCn3c(=O)n(C)c4c3nc(N)n3nc(-c5nccs5)nc43)CC2)cc1F | 8.82
* COCCOc1ccc(N2CCN(CCn3c(=O)n(C)c4c3nc(N)n3nc(-c5ccco5)nc43)CC2)cc1F | 9.15
* Cn1c(=O)n(CCN2CCN(c3ccc(OC(F)F)cc3)CC2)c2nc(N)n3nc(-c4ccco4)nc3c21 | 8.72
* COc1ccc(N2CCN(CCn3c(=O)n(C)c4c3nc(N)n3nc(-c5ccco5)nc43)CC2)cn1 | 8.35
* Cc1ccc(N2CCN(CCn3c(=O)n(C)c4c3nc(N)n3nc(-c5ccco5)nc43)CC2)cc1 | 8.85
* COCCOc1cccc(N2CCN(CCn3c(=O)n(C)c4c3nc(N)n3nc(-c5ccco5)nc43)CC2)c1 | 9.30

P. Cc1ccc(N2CCN(CCn3c(=O)n(C)c4c3nc(N)n3nc(-c5ccco5)nc43)CC2)nc1
Q. COCCOc1cc(F)c(N2CCN(CCn3c(=O)n(C)c4c3nc(N)n3nc(-c5ccco5)nc43)CC2)cc1F
Return label of the item with the larger pKi. Candidates: P , Q . Respond with the label that goes with your answer.
Q
(Q: 9.05, P: 8.77)

----------
# Tested On: hERG (Homo sapiens, UniProt Q12809)
# Sequence (Q12809 whole entry): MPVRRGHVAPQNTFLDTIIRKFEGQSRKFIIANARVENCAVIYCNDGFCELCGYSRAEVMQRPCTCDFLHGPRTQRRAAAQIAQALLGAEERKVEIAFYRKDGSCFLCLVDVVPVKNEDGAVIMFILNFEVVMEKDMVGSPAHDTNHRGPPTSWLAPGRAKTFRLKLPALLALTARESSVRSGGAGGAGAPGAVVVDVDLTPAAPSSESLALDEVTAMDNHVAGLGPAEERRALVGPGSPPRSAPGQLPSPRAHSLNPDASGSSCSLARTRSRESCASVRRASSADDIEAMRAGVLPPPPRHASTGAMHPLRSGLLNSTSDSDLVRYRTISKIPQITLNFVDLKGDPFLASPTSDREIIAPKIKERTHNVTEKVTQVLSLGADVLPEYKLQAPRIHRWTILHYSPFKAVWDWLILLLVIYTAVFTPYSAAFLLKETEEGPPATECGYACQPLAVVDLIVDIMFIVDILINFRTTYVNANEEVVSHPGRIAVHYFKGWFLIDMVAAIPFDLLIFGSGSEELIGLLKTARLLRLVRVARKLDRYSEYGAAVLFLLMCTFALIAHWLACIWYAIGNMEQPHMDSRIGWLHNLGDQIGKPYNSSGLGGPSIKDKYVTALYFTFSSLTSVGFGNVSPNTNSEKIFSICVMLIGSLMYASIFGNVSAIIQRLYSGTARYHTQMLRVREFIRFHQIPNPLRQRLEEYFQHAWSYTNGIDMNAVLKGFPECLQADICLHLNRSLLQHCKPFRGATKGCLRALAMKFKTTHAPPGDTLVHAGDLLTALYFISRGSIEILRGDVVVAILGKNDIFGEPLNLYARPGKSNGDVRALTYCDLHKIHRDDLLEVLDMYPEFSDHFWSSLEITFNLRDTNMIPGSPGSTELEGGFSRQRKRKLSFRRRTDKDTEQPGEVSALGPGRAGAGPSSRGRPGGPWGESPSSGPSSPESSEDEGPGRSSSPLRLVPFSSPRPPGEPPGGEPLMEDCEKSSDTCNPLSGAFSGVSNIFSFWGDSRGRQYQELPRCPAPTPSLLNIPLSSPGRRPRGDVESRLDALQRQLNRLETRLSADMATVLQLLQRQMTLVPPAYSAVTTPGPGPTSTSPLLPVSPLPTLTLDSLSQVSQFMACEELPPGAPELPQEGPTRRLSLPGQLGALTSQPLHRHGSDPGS
# Assay Info: Inhibition of human ERG at 10 uM relative to control
Result Type: inhibition at 10 µM (%)
Value expressed in %; do not type the unit.

Please provide the recorded inhibition at 10 µM for `COCCOc1ccc(N2CCN(CCn3c(=O)n(C)c4c3nc(N)n3nc(-c5nccs5)nc43)CC2)cc1F` , tested on hERG (Homo sapiens, UniProt Q12809).
38

----------
# Assay Info: AUC (0 to t) in Wistar rat at 10 mg/kg, po administered via gavage by LC-MS/MS analysis
# Type: ADME, organism-based
# Condition Info: in vivo
Result Type: AUC(0-t) (µM·h)
Your answer should be a plain number; it is taken to be in µM·h.

Reported AUC(0-t) for `COCCOc1ccc(N2CCN(CCn3c(=O)n(C)c4c3nc(N)n3nc(-c5nccs5)nc43)CC2)cc1F` : what is it?
2.2

----------
# Assay Info: Solubility of the compound at pH 4
# Type: physicochemical
# Condition Info: buffer
Result Type: solubility (µM)
Response body: numeric value in µM, unit text excluded.

Given the entry `COCCOc1ccc(N2CCN(CCn3c(=O)n(C)c4c3nc(N)n3nc(-c5nccs5)nc43)CC2)cc1F` , report its measured solubility.
486

----------
# Assay Info: Protein binding in dog plasma
# Assay type: ADME, cell-free, Canis lupus familiaris
# Condition Info: read-out: PPB (converted)
Result Type: fraction unbound
Answer as a number with no unit attached.

Suppose we examine the compound `COCCOc1ccc(N2CCN(CCn3c(=O)n(C)c4c3nc(N)n3nc(-c5nccs5)nc43)CC2)cc1F` ; what fraction unbound value has been reported?
0.22

----------
# Assay Info: Metabolic stability in human liver microsomes assessed as metabolic rate
# Format: ADME, microsome
Result Type: Drug metabolism (nmol/min/mg)
# unit: nmol/min/mg | format: bare number

Give the measured Drug metabolism of `COCCOc1ccc(N2CCN(CCn3c(=O)n(C)c4c3nc(N)n3nc(-c5nccs5)nc43)CC2)cc1F` .
0.14

----------
# Tested On: hERG (Homo sapiens, UniProt Q12809)
# Assay Info: Inhibition of human ERG at 3 uM relative to control
Result Type: inhibition at 3 µM (%)
The response must be a number in % with no trailing unit.

inhibition at 3 µM for `COCCOc1ccc(N2CCN(CCn3c(=O)n(C)c4c3nc(N)n3nc(-c5nccs5)nc43)CC2)cc1F` ?
28

----------
# Tested On: Adenosine receptor A2a (Rattus norvegicus)
# Assay Info: Antagonist activity at rat A2A receptor assessed as reduction in CGS-21680-induced cAMP level pretreated for 15 mins followed by CGS-21680 addition measured after 30 mins by HTRF assay
pKi: −log10 of the molar value.
Result Type: pKi

Worked set:
- COCC(C)(C)Oc1ccc(N2CCN(CCn3c(=O)n(C)c4c3nc(N)n3nc(-c5ccco5)nc43)CC2)cc1: 9.14
- Cn1c(=O)n(CCN2CCN(c3ccc(C#N)cc3)CC2)c2nc(N)n3nc(-c4ccco4)nc3c21: 8.94

1. COCCOc1cccc(N2CCN(CCn3c(=O)n(C)c4c3nc(N)n3nc(-c5ccco5)nc43)CC2)c1
2. Cn1c(=O)n(CCN2CCN(c3ccc(OC(F)F)cc3)CC2)c2nc(N)n3nc(-c4ccco4)nc3c21
3. COCCOc1ccc(N2CCN(CCn3c(=O)n(C)c4c3nc(N)n3nc(-c5ccco5)nc43)CC2)cc1
# rank by pKi, ascending (min first) Note for the reader: the ranking is given by listing the labels in the order requested.
1, 2, 3

----------
# Assay Info: Systemic clearance in Wistar rat at 3 mg/kg, iv by LC-MS/MS analysis
# Assay type: ADME, organism-based
# Condition Info: in vivo
Result Type: clearance (mL/min/kg)
Numeric only. Scale: mL/min/kg

What clearance value was documented for this molecule, `COCCOc1ccc(N2CCN(CCn3c(=O)n(C)c4c3nc(N)n3nc(-c5nccs5)nc43)CC2)cc1F` ?
45

----------
Sequence of the target: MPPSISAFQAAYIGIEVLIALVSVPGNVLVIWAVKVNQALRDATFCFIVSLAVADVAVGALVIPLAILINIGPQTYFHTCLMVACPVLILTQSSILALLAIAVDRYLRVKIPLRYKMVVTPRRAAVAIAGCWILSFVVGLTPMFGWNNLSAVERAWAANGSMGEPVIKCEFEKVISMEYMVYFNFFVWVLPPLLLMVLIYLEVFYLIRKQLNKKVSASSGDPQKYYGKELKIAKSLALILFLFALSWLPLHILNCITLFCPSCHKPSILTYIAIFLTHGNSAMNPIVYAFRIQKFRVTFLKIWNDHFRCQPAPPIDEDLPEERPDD
Result Type: Ki (µM)

I. COCCOc1ccc(N2CCN(CCn3c(=O)n(C)c4c3nc(N)n3nc(-c5nccs5)nc43)CC2)cc1F
II. Cn1c(=O)n(CCN2CCN(c3ccc(C#N)cc3)CC2)c2nc(N)n3nc(-c4ccco4)nc3c21
Looking only at measured Ki, which entry is lower, I or II ? Please identify the chosen entry by its label.
I
(I: 1.7 µM, II: 5 µM)
